molecular target: human COX I (Homo sapiens); construct: A 2.0 kb fragment containing the coding region; made in house; host or cells: SF9 insect cells (baculovirus, transfer vector pVL1393); assay: Assay for COX I activity in vitro (PGE2 ELISA, recombinant enzyme); assay type: biochemical; settings: human COX I enzyme (footnote *); read-out: COX I ID50
Sequence (P23219 24-599): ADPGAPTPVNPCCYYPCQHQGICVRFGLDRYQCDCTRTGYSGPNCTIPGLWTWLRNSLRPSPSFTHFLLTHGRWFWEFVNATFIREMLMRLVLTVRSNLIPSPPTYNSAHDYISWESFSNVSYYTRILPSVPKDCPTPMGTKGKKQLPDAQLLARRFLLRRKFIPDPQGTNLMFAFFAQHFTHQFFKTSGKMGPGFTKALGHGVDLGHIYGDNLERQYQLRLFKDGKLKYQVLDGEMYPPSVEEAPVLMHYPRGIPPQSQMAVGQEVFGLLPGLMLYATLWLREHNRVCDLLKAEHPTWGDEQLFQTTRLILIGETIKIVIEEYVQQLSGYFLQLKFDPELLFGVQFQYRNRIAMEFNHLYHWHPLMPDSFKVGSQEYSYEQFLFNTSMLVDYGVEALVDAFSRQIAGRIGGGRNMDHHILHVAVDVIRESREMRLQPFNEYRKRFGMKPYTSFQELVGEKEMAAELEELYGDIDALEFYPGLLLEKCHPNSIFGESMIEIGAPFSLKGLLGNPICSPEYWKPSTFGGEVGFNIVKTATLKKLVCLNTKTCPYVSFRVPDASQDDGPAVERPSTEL
readout.label: IC50

Query block: Which IC50 reading was recorded for the compound CS(=O)(=O)c1ccc(-c2cocc2-c2ccc(F)cc2)cc1 [Example 13] ?
Result block: > 100 µM

====

molecular target: human COX II (Homo sapiens); construct: A 2.0 kb fragment containing the coding region; made in house; host or cells: SF9 insect cells (baculovirus, transfer vector pVL1393); assay: Assay for COX II activity in vitro (PGE2 ELISA, recombinant enzyme); format: biochemical
Sequence (P35354 18-604): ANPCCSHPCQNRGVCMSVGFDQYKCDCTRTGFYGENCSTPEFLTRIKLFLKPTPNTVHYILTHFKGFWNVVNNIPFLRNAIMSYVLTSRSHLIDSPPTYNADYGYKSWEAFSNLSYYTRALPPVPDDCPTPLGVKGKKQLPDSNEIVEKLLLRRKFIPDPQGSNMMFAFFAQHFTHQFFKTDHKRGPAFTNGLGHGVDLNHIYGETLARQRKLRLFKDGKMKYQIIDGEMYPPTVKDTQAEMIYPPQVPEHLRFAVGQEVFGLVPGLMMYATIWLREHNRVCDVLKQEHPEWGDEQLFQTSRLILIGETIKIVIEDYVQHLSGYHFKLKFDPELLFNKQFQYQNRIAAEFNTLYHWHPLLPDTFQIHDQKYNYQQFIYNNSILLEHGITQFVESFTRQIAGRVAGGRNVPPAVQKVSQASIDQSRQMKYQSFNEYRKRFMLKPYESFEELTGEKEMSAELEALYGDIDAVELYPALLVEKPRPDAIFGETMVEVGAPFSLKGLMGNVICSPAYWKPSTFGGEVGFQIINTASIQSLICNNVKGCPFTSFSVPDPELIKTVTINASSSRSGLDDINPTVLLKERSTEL
readout.label: IC50

Query block: Which IC50 reading was recorded for the molecule CS(=O)(=O)c1ccc(-c2cscc2-c2ccc(F)cc2)cc1 [Example 1] ?
Result block: < 100 nM
